# credit: paper PMC6753678

# Tested on: HepG2 cells
# Assay text: HepG2 cytotoxicity assay
# Test parameters: HepG2 cytotoxicity listed with the Pb ODA data set (this manuscript)
Parameter measured: Pb ODA (this manuscript) HepG2 cytoxicity

Some solved entries appear below for comparison.
[[record]]
compound = "O=C(c1cc(-c2ccco2)[nH]n1)N1CCN(S(=O)(=O)c2ccc(Cl)cc2)CC1 [TCMDC-124698]"
obs_value = "100.00 µM"

[[record]]
compound = "Cc1nc(C)c(-c2ccc(Sc3ccc(Cl)cc3)cc2)c(O)c1Br [TCMDC-137404]"
obs_value = "100.00 µM"

[[record]]
compound = "COc1ccc2nc3cc(Cl)ccc3c(NCCN(C)C)c2c1 [TCMDC-139093]"
obs_value = "15.85 µM"

[[record]]
compound = "CC1CN(Cc2ccccc2)CCN1c1ccc(NC(=O)c2cccs2)cc1.O=C(O)C(F)(F)F (stereo not drawn) [TCMDC-135005]"
obs_value = "57.54 µM"


Please look at the items below and tell me Pb ODA (this manuscript) HepG2 cytoxicity for each one, in order.
1. CC1CN(Cc2cccc(F)c2)CCN1c1ccc(NC(=O)c2cccs2)cc1.O=C(O)C(F)(F)F (stereo not drawn) [TCMDC-135009]
2. COc1ccc2nc3cc(Cl)ccc3c(NCc3ccccc3)c2c1.Cl [TCMDC-137663]
3. CS(=O)(=O)Cc1ccc(Nc2ncc(Cl)c(Nc3cccnc3C(N)=O)n2)cc1.Cl [TCMDC-134165]
4. CCCCCCCc1c(C)nc2cccc(OC)c2c1O [TCMDC-138014]
5. Cc1c(Cc2ccccc2Br)cnc2nc(N)nc(N)c12.Cl [TCMDC-137244]

result:
["120.23 µM", "41.69 µM", "100.00 µM", "5.50 µM", "0.00776 µM"]
